- target.or.test.system: DNA excision repair protein ERCC-1/DNA repair endonuclease XPF (Homo sapiens, UniProt P07992+Q92889)
- Sequence (P07992 whole entry): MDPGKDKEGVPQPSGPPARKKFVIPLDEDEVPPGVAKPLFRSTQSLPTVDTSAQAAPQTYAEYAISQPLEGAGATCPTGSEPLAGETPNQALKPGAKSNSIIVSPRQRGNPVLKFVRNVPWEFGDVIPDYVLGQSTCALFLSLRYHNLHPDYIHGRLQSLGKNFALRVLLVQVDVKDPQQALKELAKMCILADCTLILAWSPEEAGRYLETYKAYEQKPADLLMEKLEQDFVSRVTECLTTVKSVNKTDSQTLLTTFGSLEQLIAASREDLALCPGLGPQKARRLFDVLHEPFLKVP
- Sequence (Q92889 whole entry): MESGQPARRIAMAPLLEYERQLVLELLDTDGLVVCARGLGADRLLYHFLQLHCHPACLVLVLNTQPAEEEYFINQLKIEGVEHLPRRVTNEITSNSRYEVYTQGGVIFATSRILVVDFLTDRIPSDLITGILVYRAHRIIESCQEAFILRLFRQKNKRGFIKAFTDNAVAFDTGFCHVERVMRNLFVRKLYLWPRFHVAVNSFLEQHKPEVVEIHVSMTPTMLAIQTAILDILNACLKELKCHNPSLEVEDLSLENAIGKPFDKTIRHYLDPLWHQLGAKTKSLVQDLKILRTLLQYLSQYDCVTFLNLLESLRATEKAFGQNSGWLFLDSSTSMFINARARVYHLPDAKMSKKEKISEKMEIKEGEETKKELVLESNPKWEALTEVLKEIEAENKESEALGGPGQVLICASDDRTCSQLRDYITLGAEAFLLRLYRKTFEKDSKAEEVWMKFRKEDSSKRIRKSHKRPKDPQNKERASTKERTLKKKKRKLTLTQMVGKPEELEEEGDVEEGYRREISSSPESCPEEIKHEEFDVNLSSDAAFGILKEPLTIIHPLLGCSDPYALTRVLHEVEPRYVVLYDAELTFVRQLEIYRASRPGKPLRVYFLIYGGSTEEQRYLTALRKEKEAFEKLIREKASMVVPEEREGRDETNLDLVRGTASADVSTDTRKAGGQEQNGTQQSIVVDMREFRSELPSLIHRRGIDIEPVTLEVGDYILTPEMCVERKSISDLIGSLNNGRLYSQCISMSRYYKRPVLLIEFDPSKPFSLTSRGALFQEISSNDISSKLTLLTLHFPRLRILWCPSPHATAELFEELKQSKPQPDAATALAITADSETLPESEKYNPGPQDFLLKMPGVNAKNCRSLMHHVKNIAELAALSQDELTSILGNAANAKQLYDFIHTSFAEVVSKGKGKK
- protocol.text: Inhibition of human His-tagged human ERCC1-XPF expressed in Escherichia coli BL21 (DE3) cells using 6-FAM-5'CAGCGCTCGG(20T)CCGAGCGCTG-3'-dabcyl measured for 12 mins by fluorescence incision assay
pIC50: −log10 of the molar value.
measured.property: pIC50

In [3]: df
Out[3]:
                               given_smiles  measured_property  value_observed
0  CN(C)CCN1CCN(Cc2cc(Nc3c4ccc(Cl)cc4nc4ccc(O)cc34)ccc2O)CC1              pIC50            6.31
